The values you see were collected from PubChem BioAssay (NCI).

# Tested on: DU-145 prostate
# Assay explanation: NCI-60 one-dose screen, 48 h
# Cond: 10 µM unless noted
The panel holds about 83,000 compounds, 20% with a hit somewhere; the sample as a whole holds those more often. The source made the active and inactive calls. The calls were made as follows: active = growth percent below 10; inactive = the rest.
API: response.call in active, inactive

Record excerpt, results attached:
[
  {
    "Compound": "COc1cc2c(cc1OC)C(=O)/C(=C/c1cc(-c3ccc4c(c3)OCO4)n[nH]1)C2",
    "Target desc": "DU-145 prostate",
    "Assigned category": "active"
  },
  {
    "Compound": "OCC1OC(n2cnc3c(Cl)ncnc32)CC1O (stereo unspecified)",
    "Target desc": "DU-145 prostate",
    "Assigned category": "inactive"
  },
  {
    "Compound": "CC(c1ccccc1)N1C(=O)C(C2SC(=S)N(C(C)c3ccccc3)C2=O)SC1=S (stereo unspecified)",
    "Target desc": "DU-145 prostate",
    "Assigned category": "inactive"
  },
  {
    "Compound": "CCN1CCN(C(=O)[C@]23CCC(C)(C)C[C@@H]2C2=CC[C@@H]4[C@@]5(C)C/C(=C/c6ccncc6)C(=O)C(C)(C)[C@@H]5CC[C@@]4(C)[C@]2(C)CC3)CC1",
    "Target desc": "DU-145 prostate",
    "Assigned category": "active"
  },
  {
    "Compound": "Cc1nc([P+](c2ccccc2)(c2ccccc2)c2ccccc2)c(Sc2sc(-c3ccccc3)nc2[P+](c2ccccc2)(c2ccccc2)c2ccccc2)o1",
    "Target desc": "DU-145 prostate",
    "Assigned category": "inactive"
  }
]

Task item: For this compound, state the assay outcome: `CC[C@]12C=CCN3CC[C@@]4(c5cc([C@H]6CCC(=O)N6)c(OC)cc5N(C)[C@H]4[C@@](O)(C(=O)OC)[C@@H]1OC(C)=O)[C@@H]32`
Reply: inactive

Task item: For this compound, state the assay outcome: `CCc1cccc(CC)c1NC(=O)c1sc2nc3c(cc2c1N)CCCC3`
Reply: inactive

Task item: For this compound, state the assay outcome: COc1ccc(C2NC(=O)Nc3ccccc32)c(OC)c1 (stereo unspecified)
Reply: inactive
